- Test system: GCaMP5-expressing T. gondii
- Construct: whole extracellular parasites expressing GCaMP5 Ca2+ sensor
- Design: species or system GCaMP5-expressing Toxoplasma gondii, extracellular; GCaMP5 fluorescence (cytosolic Ca2+) after 100 uM zaprinast in compound-pretreated extracellular parasites, background-subtracted, relative to zaprinast alone
- TEST CONDITIONS: 100 uM zaprinast stimulation; 10 min pretreatment; mean of two replicates; 0.23 h
Task for the reader: assign each of the following molecules its reported fold change in fluorescence relative to zaprinast alone.
Give bare numbers.

Check out these entries, answers already filled in.
In [3]: df
Out[3]:
                                   molecule  endpoint_value
0  O=C(Nc1cccc(-c2nn3ncccc3c2-c2ccnc(Nc3cccnc3)n2)c1)c1c(F)cccc1F [GSK312879A]           1.048
1  COc1ccc2cc(-c3c(-c4ccncc4)nc(-c4ccc([S+](C)[O-])cc4C)n3C)ccc2c1 (stereo not drawn) [SB-630812]           1.111
2  O=C1Nc2ccc(C(=O)c3ccco3)cc2C1=Cc1cc(Cl)c(O)c(Cl)c1 [GW406108X]           1.311
3  CC(C)c1nc(-c2cccc(NS(=O)(=O)c3c(F)cccc3F)c2)c(-c2ccnc(Nc3ccc(N4CCOCC4)nc3)n2)s1 [GSK1723980B]          0.6316
4  Cc1ccc(O)cc1Nc1ccnc2cc(-c3ccccn3)ccc12 [GW440139B]           1.023

Okay, now this molecule:
Provide the documented fold change in fluorescence relative to zaprinast alone with GCaMP5-expressing T. gondii as the system for COc1cc2ncnc(Nc3ccc4nc(-c5ccccc5)[nH]c4c3)c2cc1OC [GW282450A]
0.9024

----------
- Tested on: GCaMP5-expressing T. gondii
- Construct: whole extracellular parasites expressing GCaMP5 Ca2+ sensor
- Design: species or system GCaMP5-expressing Toxoplasma gondii, extracellular; GCaMP5 fluorescence (cytosolic Ca2+) after 100 uM zaprinast in compound-pretreated extracellular parasites, background-subtracted, relative to zaprinast alone
- TEST CONDITIONS: 100 uM zaprinast stimulation; 10 min pretreatment; mean of two replicates; 0.23 h
Exercise: for every item that follows, state its recorded fold change in fluorescence relative to zaprinast alone.
One number for each entry.

Example entries and their recorded answers appear below.
In [3]: df
Out[3]:
                                   compound  endpoint_value
0  CCc1cccc(CC)c1/C=C/c1cncc(C(=O)NC)c1 [GW450241X]           1.076
1  CC(=O)Nc1cccc(C#Cc2cncnc2Nc2ccc(OCc3cccc(F)c3)c(Cl)c2)c1 [GW703087X]           1.104
2  Cc1ccc(NC(=O)CC2CC2)cc1-c1ccc(C(=O)NCC2CC2)cc1 [GW796920X]           1.231
3             CCn1c(-c2c(N)noc2C)nc2cnccc21          0.9935
4  O=C(Nc1cccc(-c2nn3ncccc3c2-c2ccnc(Nc3ccccc3)n2)c1)c1c(F)cccc1F [GSK198271A]           1.278
5  CN1CCN(Cc2ccc(NC(=O)Nc3ccc(N(C)c4ccnc(Nc5ccc(CS(C)(=O)=O)cc5)n4)cc3)cc2)CC1 [GW827654A]           1.248

Answer for every listed entry: what is its fold change in fluorescence relative to zaprinast alone? The entries follow.
1. NS(=O)(=O)c1ccc(Nc2cc(-c3ccc(O)c(F)c3)n[nH]2)cc1 [GW831091X]
2. [O-][S+]1CCN(Cc2ccc(-c3ccc4ncnc(Nc5ccc(OCc6ccccc6)c(F)c5)c4c3)o2)CC1 [GW576924A]
3. COc1cc(Nc2ncc3c(C)nc(-c4cccc(Oc5ccccc5)c4)n3n2)cc(OC)c1OC [GW861893X]

1. 1.195
2. 0.1384
3. 0.7386

# per-item lookup of fold change in fluorescence relative to zaprinast alone; items listed below
1. c1ccc(-c2n[nH]cc2-c2ccnc(-c3ccc(OCCN4CCOCC4)cc3)c2)nc1 [GW695874X]
2. CCNC(=O)O[C@H]1CN[C@H](C#Cc2cc3ncnc(Nc4ccc(OCc5cccc(F)c5)c(Cl)c4)c3s2)C1 [GSK192082A]
3. Cc1cccc(Nc2nc(N[C@H]3CCCC[C@H]3N)ncc2C(N)=O)c1 [GSK986310C]
4. Cc1[nH]nc2ccc(-c3cc(OC[C@@H](N)Cc4ccccc4)cnc3-c3ccoc3)cc12 [GSK507358A]

1. 1.104
2. 1.213
3. 1.388
4. 0.7404
